Here we list compounds with their recorded IC50 when tested on UniProt:O70536.
Sequence (O70536 whole entry): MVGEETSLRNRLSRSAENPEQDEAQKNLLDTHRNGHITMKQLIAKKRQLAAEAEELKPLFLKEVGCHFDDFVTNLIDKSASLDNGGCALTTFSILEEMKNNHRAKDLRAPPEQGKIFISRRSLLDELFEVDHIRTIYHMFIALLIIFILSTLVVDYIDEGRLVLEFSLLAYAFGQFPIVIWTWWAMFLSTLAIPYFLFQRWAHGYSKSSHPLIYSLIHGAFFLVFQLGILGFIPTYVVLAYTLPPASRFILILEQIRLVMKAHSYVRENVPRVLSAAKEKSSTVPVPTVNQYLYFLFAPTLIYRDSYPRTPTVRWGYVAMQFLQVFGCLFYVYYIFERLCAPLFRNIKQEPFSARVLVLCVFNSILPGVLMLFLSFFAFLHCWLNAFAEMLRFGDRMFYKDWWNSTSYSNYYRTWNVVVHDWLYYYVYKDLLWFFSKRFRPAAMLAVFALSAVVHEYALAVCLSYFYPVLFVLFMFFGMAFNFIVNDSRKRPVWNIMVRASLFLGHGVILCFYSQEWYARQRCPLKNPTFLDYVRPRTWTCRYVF
Readout Name: IC50 (µM)

> print(dat)
                           structure.smiles  test.result
1  CCCCCCCC[C@H](SCCCCCC)C(=O)Nc1c(SC)cc(C)nc1SC        0.022
2  CCCCCCCC[C@H](SCCCCCC)C(=O)Nc1c(SC)ccc2ncccc12        0.135
